- System: MOLT-4
- experiment.summary: NCI tumour cell line growth inhibition, 48 h
Calls of active or inactive are those of the source. No stated cut-off is given here; in the data, active = GI50 up to about 1.1 µM and inactive = higher.
Classes used: label 1 for active, label 0 for inactive

>  <compound>
Cn1c(=O)c2[nH]c(/N=N/N3CCN(CCO)CC3)nc2n(C)c1=O

>  <label.class>
label 0

$$$$
>  <compound>
Cc1ccc(O)c(C(c2ccc([N+](=O)[O-])cc2)c2cc(C)ccc2O)c1

>  <label.class>
label 0

$$$$
>  <compound>
O=C1NC(c2cccc3ccccc23)Nc2ccccc21 (stereo unspecified)

>  <label.class>
label 1

$$$$
>  <compound>
Cc1nc(N)nc(N)c1CCCCc1ccc(N)cc1

>  <label.class>
label 0

$$$$
>  <compound>
CCSC1=N/C(=C\c2ccco2)C(Cl)=N1

>  <label.class>
label 0

$$$$
>  <compound>
CS/C(=N\C#N)S/C=C/C(=O)c1ccc(Cl)cc1

>  <label.class>
label 1

$$$$
>  <compound>
CCN(CC)CCn1c2ccccc2c(=O)c2c(OC)ccc(OC)c21

>  <label.class>
label 0

$$$$
>  <compound>
Clc1cccc(/C=c2\nc(-c3ccccc3)n3c2nc2ccccc23)c1

>  <label.class>
label 0

$$$$
>  <compound>
CC(=O)OCC1OC(n2c(=O)[nH]c(=O)c3nn[nH]c32)C(OC(C)=O)C(OC(C)=O)C1OC(C)=O (stereo unspecified)

>  <label.class>
label 0

$$$$
>  <compound>
O=C1Oc2ccccc2C(=O)/C1=C\NC(=S)c1ccncc1

>  <label.class>
label 0

$$$$
>  <compound>
COc1cc(C2(C)SCCCS2)cc(OC)c1OC

>  <label.class>
label 0

$$$$

---

- System: SNB-19
- experiment.summary: NCI tumour cell line growth inhibition, 48 h
Active and inactive are the calls of the source. Cut-off read from the data, not from the text of the source: active = GI50 up to about 1.1 µM and inactive = higher.
Recorded GI50 values for a group of compounds are listed next.
quantity: GI50

>  <compound>
N#CCc1nc(-c2ccccc2)n[nH]1

>  <quantity>
GI50

>  <endpoint.result>
74 µM (inactive)

$$$$
>  <compound>
O=c1ccc2ccc(OP(=O)(O)O)cc2o1

>  <quantity>
GI50

>  <endpoint.result>
> 100 µM (inactive)

$$$$
>  <compound>
CC1=C2c3ccccc3N(C(=O)/C=C/C(=O)O)[C@H]2[C@H]2C(=O)OC(=O)[C@H]2C1

>  <quantity>
GI50

>  <endpoint.result>
> 10 µM (inactive)

$$$$
>  <compound>
CN1CC[C@]2(C)c3cc(O)ccc3CC3CCCC1C32C (stereo partly specified)

>  <quantity>
GI50

>  <endpoint.result>
> 100 µM (inactive)

$$$$
>  <compound>
CCOC(=O)C(=O)Nc1ccc([N+](=O)[O-])cc1C#N

>  <quantity>
GI50

>  <endpoint.result>
> 100 µM (inactive)

$$$$
>  <compound>
O=C1C=CC(=O)c2c1cc1ccccc1c2O

>  <quantity>
GI50

>  <endpoint.result>
19.3 µM (inactive)

$$$$
>  <compound>
Cc1cc2ccccc2c[n+]1CC(O)C[n+]1cc2ccccc2cc1C

>  <quantity>
GI50

>  <endpoint.result>
> 100 µM (inactive)

$$$$
>  <compound>
CC1COS(=O)O1 (stereo unspecified)

>  <quantity>
GI50

>  <endpoint.result>
> 100 µM (inactive)

$$$$
>  <compound>
COc1cc(OC)c(OC)cc1/C=N/N=C(\N)NO

>  <quantity>
GI50

>  <endpoint.result>
> 100 µM (inactive)

$$$$
>  <compound>
NCc1ccc(C(=O)O)cc1 [AMINOMETHYLBENZOIC ACID]

>  <quantity>
GI50

>  <endpoint.result>
> 100 µM (inactive)

$$$$
>  <compound>
NN=C(S)Nc1cccc(Cl)c1

>  <quantity>
GI50

>  <endpoint.result>
> 100 µM (inactive)

$$$$
>  <compound>
CC1=NC(C)(C)N(O)C1(C)C

>  <quantity>
GI50

>  <endpoint.result>
> 100 µM (inactive)

$$$$
>  <compound>
CCNC1CC(C(C)(C)NCC)CC=C1C (stereo unspecified)

>  <quantity>
GI50

>  <endpoint.result>
> 100 µM (inactive)

$$$$
>  <compound>
CN(C)CC(CO)(CN(C)C)CN(C)C

>  <quantity>
GI50

>  <endpoint.result>
> 100 µM (inactive)

$$$$
>  <compound>
COC(=O)C(C)(C)[C@@H]1OC(=O)N(S(=O)(=O)c2c(C)cc(C)cc2C)[C@H]1C(C)C

>  <quantity>
GI50

>  <endpoint.result>
> 100 µM (inactive)

$$$$
>  <compound>
O=C1c2ccccc2C(=O)c2c(NC3CCCCC3)ccc(Nc3ccc(S(=O)(=O)O)cc3)c21

>  <quantity>
GI50

>  <endpoint.result>
84.5 µM (inactive)

$$$$

---

- Tested on: OVCAR-8
- experiment.summary: NCI tumour cell line growth inhibition, 48 h
Activity calls are given as the source filed them. No stated cut-off is given here; in the data, active = GI50 up to about 1.1 µM and inactive = higher.

>  <molecule>
CCOC(=O)/C(C#N)=C1/Sc2c(ncn(/N=C/c3ccc(OC)cc3)c2=O)N1c1ccccc1

>  <GI50>
40.6 µM (inactive)

$$$$
>  <molecule>
COc1ccc(/C=C/C(=O)c2sc(N)nc2C)cc1

>  <GI50>
> 100 µM (inactive)

$$$$
>  <molecule>
CCc1nc2c(n1CC)C(=O)c1ccccc1C2=O

>  <GI50>
32.8 µM (inactive)

$$$$
>  <molecule>
Clc1ccc(CCn2ccc3ccccc32)c(Cl)c1

>  <GI50>
> 100 µM (inactive)

$$$$
>  <molecule>
C=CC1=C(C)c2cc3[nH]c(c4c5nc(cc6[nH]c(cc1n2)c(C=O)c6CC)C(C)=C5C(=O)[C@@H]4C(=O)OC)[C@@H](CCC(=O)O)[C@@H]3C

>  <GI50>
53.3 µM (inactive)

$$$$
>  <molecule>
CN(N=O)N1C(=O)SCC(c2ccccc2)(c2ccccc2)C1=O

>  <GI50>
16.2 µM (inactive)

$$$$
>  <molecule>
Cc1ccc(C(=O)/C=C(\O)C(=O)NN=C(c2ccccc2)c2ccccc2)cc1

>  <GI50>
76.4 µM (inactive)

$$$$
>  <molecule>
Cn1c(=O)c2[nH]c(/N=N/N3CCN(CCO)CC3)nc2n(C)c1=O

>  <GI50>
> 100 µM (inactive)

$$$$
>  <molecule>
CC1C(c2cc(C(C)(C)C)c(O)c(C(C)(C)C)c2)c2cc3c(cc2OC1N1CCOCC1)OCO3 (stereo not given)

>  <GI50>
19.1 µM (inactive)

$$$$
>  <molecule>
O=C1C=CC(=O)c2c1cc1ccccc1c2O

>  <GI50>
2.58 µM (inactive)

$$$$

---

- Tested on: NCI-H460
- experiment.summary: NCI tumour cell line growth inhibition, 48 h
The source made the active and inactive calls. Rule as the data show it: active = GI50 up to about 1.1 µM and inactive = higher.

>  <compound>
Cc1ccc(C)c2c1NC(=O)/C2=N\Nc1ccccc1[N+](=O)[O-]

>  <GI50>
> 100 µM (inactive)

$$$$
>  <compound>
CCOC(=O)C(=O)Nc1ccc([N+](=O)[O-])cc1C#N

>  <GI50>
> 100 µM (inactive)

$$$$
>  <compound>
COc1cccc(CCCNC(=O)Cc2cc(OC)c(OC)cc2CO)c1

>  <GI50>
> 100 µM (inactive)

$$$$
>  <compound>
N#C/C(N)=C(C#N)/N=C/Nc1ccc(N)cc1

>  <GI50>
> 100 µM (inactive)

$$$$
>  <compound>
Cc1cc2ccccc2c[n+]1CC(O)C[n+]1cc2ccccc2cc1C

>  <GI50>
> 100 µM (inactive)

$$$$
>  <compound>
OC1C2CCC3C2CC(C(O)(c2ccccc2)c2ccccc2)C13 (configuration not stated)

>  <GI50>
41.3 µM (inactive)

$$$$
>  <compound>
COC(=O)C1CCC(=O)C(Sc2ccccc2)C1 (configuration not stated)

>  <GI50>
> 100 µM (inactive)

$$$$
>  <compound>
CC1(C)C(=O)C(C)(C)C12SSC1(S2)C(C)(C)C(=O)C1(C)C

>  <GI50>
> 100 µM (inactive)

$$$$
>  <compound>
CCCCCCCCCc1c(O)c(O)c(CCCCCCCCC)c(CCCCCCCCC)c1CCCCCCCCC

>  <GI50>
> 100 µM (inactive)

$$$$
>  <compound>
CCOC(=O)c1cn2c(n1)sc1cc(Cl)cc(Cl)c12

>  <GI50>
> 100 µM (inactive)

$$$$
>  <compound>
C/C(=N\NC(=S)Nc1ccccc1)c1nc2cccnc2[nH]1

>  <GI50>
1.54 µM (inactive)

$$$$
>  <compound>
COC1OC2COC1(OC)C1OC(C)(C)OC21 (configuration not stated)

>  <GI50>
> 100 µM (inactive)

$$$$
>  <compound>
CC12ON(P(=O)(c3ccccc3)c3ccccc3)C(C)(c3ccccc31)c1ccccc12

>  <GI50>
67.5 µM (inactive)

$$$$
>  <compound>
COC(=O)C1=Cc2cc(OC)c(OC)cc2[C@H](c2ccc(OC)c(OC)c2)C1C(=O)OC (some centres not stated)

>  <GI50>
> 100 µM (inactive)

$$$$
>  <compound>
Cc1ccc(/C=N/Nc2ccccn2)s1

>  <GI50>
> 100 µM (inactive)

$$$$
>  <compound>
COc1ccc(-n2c(C)nc3ccc(NC4OC(COC(C)=O)C(OC(C)=O)C(OC(C)=O)C4OC(C)=O)cc3c2=O)cc1 (configuration not stated)

>  <GI50>
> 100 µM (inactive)

$$$$
>  <compound>
COc1ccc(/C=C2\Sc3nnc(-c4ccccc4)n3N=C2c2cc(F)c(Cl)cc2Cl)cc1OC

>  <GI50>
> 100 µM (inactive)

$$$$
>  <compound>
CC1=NC(C)(C)N(O)C1(C)C

>  <GI50>
> 100 µM (inactive)

$$$$
>  <compound>
CCC(CC)n1c(C)nc2c1C(=O)c1ccccc1C2=O

>  <GI50>
20.7 µM (inactive)

$$$$
>  <compound>
Cc1cccc(N2C(=O)/C(=C/c3ccc(N(CCC#N)CCC#N)cc3C)N=C2c2cc([N+](=O)[O-])ccc2Cl)c1

>  <GI50>
> 100 µM (inactive)

$$$$
>  <compound>
COC(=O)c1ccccc1C1CN=NC12Cc1c(C)cccc1C2=O (configuration not stated)

>  <GI50>
> 100 µM (inactive)

$$$$
>  <compound>
Cc1nn(C(=O)Cc2ccccc2)c2c1C(c1ccc(O)cc1O)SC(=N)N2 (configuration not stated)

>  <GI50>
> 100 µM (inactive)

$$$$
